- assay-method-text: chemical genetic growth profiling, strain panel (AID 1159580);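 further: tested at 20 µM; growth read once vehicle control cultures reached saturation at 30 °C; 1 = growth at the plate median or of vehicle wells; lower values mean less growth of the strain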
- condition-context: S. cerevisiae deletion strains, growth OD, locus YMR277W, strain FCP1, active compounds read low
About 2,000 (36%) of roughly 5,500 compounds were called active. Roughly 18% stayed inconclusive and do not appear here. This is one part of the list.
property-name: normalized growth
Keep it simple and answer with nothing but the number.

Prompt: Supply measured normalized growth of CC1CCc2c(sc3ncnc(Sc4ccccc4)c23)C1 (centres undefined) in your reply.
Completion: 0.98

Prompt: State, in one line, measured normalized growth of `N/C(=N/OC(=O)c1ccccc1Cl)c1cccc(CS(=O)(=O)c2ccc(Cl)cc2)c1`
Completion: 0.99

Prompt: Look up normalized growth of `COC(=O)c1ccc(Oc2c(C(F)(F)F)oc3cc(O)ccc3c2=O)cc1` and report it.
Completion: 0.978

Prompt: Return normalized growth for the following compound: `N#C/C(=C\c1ccc(C(F)(F)F)cc1)c1ccc(O)cc1`
Completion: 0.963

* * *

- assay-method-text: chemical genetic growth profiling, strain panel (AID 1159580);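 further: tested at 20 µM; growth read once vehicle control cultures reached saturation at 30 °C; 1 = growth at the plate median or of vehicle wells; lower values mean less growth of the strain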
- condition-context: S. cerevisiae deletion strains, growth OD, locus YFR019W, strain FAB1, active compounds read low
Hit rate of the full screen: of about 5,500 compounds, about 2,000 (36%) were called active. Roughly 18% stayed inconclusive and do not appear here. The list shows a part of the results.
Provide the reported normalized growth of each item.
Simply state the number, no unit and no words.

Prompt: Indicate the recorded normalized growth value for this molecule: `O=C(OCc1ccc(Oc2ccc(Cl)cc2Cl)c([N+](=O)[O-])c1)c1ccc([N+](=O)[O-])o1`
Completion: 0.99

Prompt: Please report the measured normalized growth for O=C1OC(Nc2ccccc2SCc2ccccc2Cl)c2ccccc21 (configuration not stated)
Completion: 0.886

Prompt: Item `COc1ccc(-c2cc(NS(=O)(=O)c3cccc(F)c3)n(-c3ccc(Cl)c(Cl)c3)n2)cc1` : provide normalized growth
Completion: 0.931

Prompt: Determine from records and report normalized growth for CC(Oc1ccc(Cl)cc1Cl)C(=O)NNC(=S)Nc1ccccc1 (configuration not stated)
Completion: 0.964

Prompt: Give the reported normalized growth for this molecule. C(=NC(N=Cc1ccccc1)c1ccccc1)c1ccccc1 (configuration not stated)
Completion: 0.962

Prompt: Please give the documented normalized growth of `CC(/C=C/c1ccccc1)=N/OC(=O)c1ccccc1Cl`
Completion: 0.936

Prompt: // Input: `O=S(=O)(Nc1ccc(-n2nc(C(F)(F)F)cc2-c2cccs2)cc1)c1ccc(F)cc1` . Output its normalized growth only.
Completion: 0.985

Prompt: Look up and state reported normalized growth for FC(F)(F)c1ccc(C2Sc3ccccc3N=C3c4ccccc4CC32)cc1 (configuration not stated)
Completion: 0.985

Prompt: Quickly give me recorded normalized growth for `Cc1c(NCN2C(=O)CCC2=O)cc2c(c1[N+](=O)[O-])C(C)(C)CC2(C)C`
Completion: 0.952

Prompt: Give the measured normalized growth for `O=C(NNc1c(Cl)cccc1Cl)c1ccc([N+](=O)[O-])o1`
Completion: 0.89

Prompt: Give me measured normalized growth, please, for this molecule: `COc1cc(OC)cc(/C(N)=N\O)c1`
Completion: 0.961

Prompt: Please report normalized growth for the following molecule: `CCCCCc1ccc(-c2nc(SCC(C)=O)n[nH]2)cc1`
Completion: 0.885

* * *

- assay-method-text: chemical genetic growth profiling, strain panel (AID 1159580);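 further: tested at 20 µM; growth read once vehicle control cultures reached saturation at 30 °C; 1 = growth at the plate median or of vehicle wells; lower values mean less growth of the strain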
- condition-context: S. cerevisiae deletion strains, growth OD, locus YER110C, active compounds read low
The whole screen tested about 5,500 compounds, of which about 2,000 (36%) were called active. About 18% were inconclusive and are not listed. Some of the results follow.
property-name: normalized growth
Enter a number only.

Prompt: Answer with the recorded normalized growth of `COc1c(O)cc(O)cc1O` only.
Completion: 0.991

Prompt: Item CCOc1nc2cccc(C(=O)OC(C)OC(=O)OC3CCCCC3)c2n1Cc1ccc(-c2ccccc2-c2nn[nH]n2)cc1 (centres undefined) : provide normalized growth
Completion: 0.997

Prompt: Query normalized growth for CC(=O)OCC(=O)[C@@]1(O)CCC2C3CCC4=CC(=O)CC[C@]4(C)[C@@]3(F)[C@@H](O)C[C@@]21C (some centres undefined)
Completion: 1

Prompt: Indicate the recorded normalized growth value for this compound: `Cn1c(=O)[nH]c(=O)c2[nH]cnc21`
Completion: 0.969

Prompt: Give recorded normalized growth. `Cn1cnc([N+](=O)[O-])c1Sc1ncnc2nc[nH]c12`
Completion: 0.989

Prompt: Look up and report measured normalized growth for this entry: CC(C)(O)CC[C@@H](O)[C@](C)(O)C1CC[C@@]2(O)C3=CC(=O)C4C[C@@H](O)[C@@H](O)C[C@]4(C)C3CC[C@]12C (some centres undefined)
Completion: 0.994

Prompt: Assign normalized growth to the following record: C[C@]12CCC3C(CC[C@H]4CC(=O)CC[C@]34C)C1CCC2=O (some centres undefined)
Completion: 0.958

Prompt: # return recorded normalized growth for input CCCC(=O)Nc1ncnc2c1ncn2C1O[C@@H]2COP(=O)(O)O[C@H]2[C@H]1OC(=O)CCC (some centres undefined)
Completion: 1.03

Prompt: Return normalized growth (reported value) for this compound: `C[C@H]1C(=O)O[C@@H]2CCN3CC=C(COC(=O)[C@](C)(O)[C@]1(C)O)[C@H]23`
Completion: 0.986

Prompt: Give reported normalized growth value for `O=c1[nH]c2ccccc2n1C1CCN(CCCC(c2ccc(F)cc2)c2ccc(F)cc2)CC1`
Completion: 0.993

Prompt: // fetch normalized growth given entry `O=c1cc(-c2ccc(O)cc2)oc2cc(O[C@@H]3O[C@H](CO)[C@@H](O)[C@H](O)[C@H]3O[C@@H]3OC[C@](O)(CO)[C@H]3O)cc(O)c12`
Completion: 0.984

Prompt: Consider the compound `c1coc(CNc2ncnc3nc[nH]c23)c1` . State its measured normalized growth.
Completion: 0.999

Prompt: Provide measured normalized growth value, entry: `CCN(CC)CCNC(=O)COc1ccc(OC)cc1`
Completion: 0.989

Prompt: State its normalized growth for this compound: `CCCCC(=O)N(Cc1ccc(-c2ccccc2-c2nn[nH]n2)cc1)[C@H](C(=O)O)C(C)C`
Completion: 0.973

Prompt: Provide only the value of recorded normalized growth for `CC1(C)C[C@@H]2C(=O)CC[C@H]3O[C@]3(C)CC[C@H]21`
Completion: 0.989

Prompt: Tell us which normalized growth value is on record for `Fc1ccc(C(c2ccc(F)cc2)N2CCN(C/C=C/c3ccccc3)CC2)cc1`
Completion: 0.974

Prompt: Give me measured normalized growth, please, for this compound: `CCCc1nc(C(C)(C)O)c(C(=O)OCc2oc(=O)oc2C)n1Cc1ccc(-c2ccccc2-c2nn[nH]n2)cc1`
Completion: 0.985

Prompt: Input `COc1cc(OC)c(-c2c(OC)cc(OC)cc2OC)c(OC)c1` , output reported normalized growth.
Completion: 1.02

Prompt: Identify measured normalized growth associated with CC1=C(C(=O)O)N2C(=O)[C@@H](NC(=O)[C@H](N)C3=CCC=CC3)C2SC1 (some centres undefined)
Completion: 0.981

Prompt: Retrieve normalized growth measured for `COc1cc2c(cc1-c1coc3c4c(c(OC)cc3c1=O)OC(C)(C)C=C4)OCO2` and print it.
Completion: 0.994

Prompt: For the compound `CCCCCN=C(N)N/N=C\c1c[nH]c2ccc(OC)cc12` , give its reported normalized growth.
Completion: 1.05

Prompt: Quote normalized growth reported for `COc1c2c(cc3occ(-c4ccc5c(c4)OCO5)c(=O)c13)OC(C)(C)C=C2` please.
Completion: 0.983

Prompt: Tell us which normalized growth value is on record for `OCCN1CCN(CCCN2c3ccccc3Sc3ccc(Cl)cc32)CC1`
Completion: 0.998

Prompt: Tell us which normalized growth value is on record for CC(C(=O)O)c1ccc(N2Cc3ccccc3C2=O)cc1 (centres undefined)
Completion: 0.994

Prompt: For C[N+]1(C)C2CC[C@H]1CC(OC(=O)C(O)c1ccccc1)C2 (some centres undefined) , write its normalized growth.
Completion: 1.02

Prompt: State, in one line, measured normalized growth of COC(=O)C[C@H]1C(C)(C)[C@@H](OC(C)=O)[C@@H]2CC3C4CC(=O)O[C@@H](c5ccoc5)[C@]4(C)CCC3[C@@]1(C)C2=O (some centres undefined)
Completion: 1.02

Prompt: Note down normalized growth recorded for `N#Cc1ccc2c(c1)N(CCCN1CCC(O)CC1)c1ccccc1S2`
Completion: 1.02

Prompt: Name the recorded normalized growth of the item `Nc1ncnc2nc[nH]c12` in your answer.
Completion: 1

Prompt: Determine from records and report normalized growth for CCOC(=O)C1=C(C)NC(C)=C(C(=O)OC)C1c1cccc([N+](=O)[O-])c1 (centres undefined)
Completion: 1.01
